- Target: human CTPS1 (Homo sapiens, UniProt P17812)
- Construct: FLAG (with GG linker); His8 (with GG linker); purchased Proteros biostructures GmbH
- Sequence (P17812 whole entry): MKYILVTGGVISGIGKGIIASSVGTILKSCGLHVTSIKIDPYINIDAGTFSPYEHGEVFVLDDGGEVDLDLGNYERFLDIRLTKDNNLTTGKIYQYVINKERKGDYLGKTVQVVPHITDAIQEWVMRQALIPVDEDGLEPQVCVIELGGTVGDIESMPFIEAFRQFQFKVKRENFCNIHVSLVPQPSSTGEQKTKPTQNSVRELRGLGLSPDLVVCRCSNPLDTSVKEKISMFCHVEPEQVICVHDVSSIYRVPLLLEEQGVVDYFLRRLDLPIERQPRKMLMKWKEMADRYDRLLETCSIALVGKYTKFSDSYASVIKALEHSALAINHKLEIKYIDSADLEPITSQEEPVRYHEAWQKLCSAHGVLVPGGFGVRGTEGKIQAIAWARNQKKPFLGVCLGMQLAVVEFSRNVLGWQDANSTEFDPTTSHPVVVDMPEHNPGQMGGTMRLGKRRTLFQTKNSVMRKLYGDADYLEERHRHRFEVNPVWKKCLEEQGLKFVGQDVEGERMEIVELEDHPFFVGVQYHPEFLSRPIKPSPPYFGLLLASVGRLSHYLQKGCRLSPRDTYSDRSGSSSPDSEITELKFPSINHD
- Assay protocol: Human CTPS1 enzyme inhibition, ADP-Glo Max assay
- Assay type: biochemical
- Run parameters: ADP-Glo Max assay; Table 10; read-out: Human CTPS1 Enzyme Inhibition, IC50 grouped by potency range (CTPS1)
pIC50: −log10 of the molar value.
Measured endpoint: pIC50

Completed entries (count: 5):
CC(C)(C(=O)Nc1ccc(-c2cncc(F)c2)cc1)c1csc(NS(=O)(=O)C2CC2)n1 [T253]: > 7.00
O=C(Cc1csc(NS(=O)(=O)C2CC2)n1)Nc1ccc(-c2ccccc2)nc1 [T66]: 6.00 to 7.00
CC(C)(C(=O)Nc1ccc(-c2cccc(OC(F)(F)F)c2)cn1)c1csc(NS(=O)(=O)C2CC2)n1 [T236]: 6.00 to 7.00
CCOc1cncc(-c2ccc(NC(=O)C(C)(C)c3csc(NS(=O)(=O)CCOC)n3)c(F)c2)n1 [T432]: 6.00 to 7.00
CC(C)CS(=O)(=O)Nc1nc(C(C)(C)C(=O)Nc2ccc(-c3cccnc3)cc2)cs1 [T311]: 5.00 to 6.00

Form: Entry = CN(C(=O)C(C)(C)c1csc(NS(=O)(=O)C2CC2)n1)c1ccc(-c2cncc(C(F)(F)F)n2)cc1 [T310] | System = human CTPS1 (Homo sapiens, UniProt P17812) | pIC50 = ____ 5.00 to 6.00

GET /values?readout=pIC50&system=human CTPS1 (Homo sapiens, UniProt P17812)&item= CC(C)CS(=O)(=O)Nc1nc(C(C)(C)C(=O)Nc2ccc(-c3cncc(C(F)(F)F)n3)cc2)cs1 [T313] 6.00 to 7.00

Given the entry Cc1ccc(-c2ccc(NC(=O)Cc3csc(NS(=O)(=O)C4CC4)n3)cc2)cn1 [T101] , what pIC50 was observed with human CTPS1 (Homo sapiens, UniProt P17812)? 5.00 to 6.00

Item CC(C)(C(=O)Nc1ccc(-c2cccc(C(F)(F)F)n2)cn1)c1csc(NS(=O)(=O)C2CC2)n1 [T51] with human CTPS1 (Homo sapiens, UniProt P17812) - pIC50? > 7.00

So what pIC50 did O=C(Cc1csc(NS(=O)(=O)C2CC2)n1)Nc1ccc(-c2ccc(F)cc2)cc1 [T25] get with human CTPS1 (Homo sapiens, UniProt P17812)? 5.00 to 6.00

human CTPS1 (Homo sapiens, UniProt P17812) / pIC50 / CC(C)(C(=O)Nc1ncc(-c2cnccn2)cc1F)c1csc(NS(=O)(=O)C2CC2)n1 [T110] : value? 6.00 to 7.00

Data provenance is patent US20230086703A1.
